# credit: patent US20100260765A1

Kindly state Activity at 133 nM Antibody Concentration (% Survival Inhibition), Average for each of the entries shown.
- ASSAY TARGET: KDR (human, UniProt P35968 20-1356)
- Sequence (P35968 20-1356): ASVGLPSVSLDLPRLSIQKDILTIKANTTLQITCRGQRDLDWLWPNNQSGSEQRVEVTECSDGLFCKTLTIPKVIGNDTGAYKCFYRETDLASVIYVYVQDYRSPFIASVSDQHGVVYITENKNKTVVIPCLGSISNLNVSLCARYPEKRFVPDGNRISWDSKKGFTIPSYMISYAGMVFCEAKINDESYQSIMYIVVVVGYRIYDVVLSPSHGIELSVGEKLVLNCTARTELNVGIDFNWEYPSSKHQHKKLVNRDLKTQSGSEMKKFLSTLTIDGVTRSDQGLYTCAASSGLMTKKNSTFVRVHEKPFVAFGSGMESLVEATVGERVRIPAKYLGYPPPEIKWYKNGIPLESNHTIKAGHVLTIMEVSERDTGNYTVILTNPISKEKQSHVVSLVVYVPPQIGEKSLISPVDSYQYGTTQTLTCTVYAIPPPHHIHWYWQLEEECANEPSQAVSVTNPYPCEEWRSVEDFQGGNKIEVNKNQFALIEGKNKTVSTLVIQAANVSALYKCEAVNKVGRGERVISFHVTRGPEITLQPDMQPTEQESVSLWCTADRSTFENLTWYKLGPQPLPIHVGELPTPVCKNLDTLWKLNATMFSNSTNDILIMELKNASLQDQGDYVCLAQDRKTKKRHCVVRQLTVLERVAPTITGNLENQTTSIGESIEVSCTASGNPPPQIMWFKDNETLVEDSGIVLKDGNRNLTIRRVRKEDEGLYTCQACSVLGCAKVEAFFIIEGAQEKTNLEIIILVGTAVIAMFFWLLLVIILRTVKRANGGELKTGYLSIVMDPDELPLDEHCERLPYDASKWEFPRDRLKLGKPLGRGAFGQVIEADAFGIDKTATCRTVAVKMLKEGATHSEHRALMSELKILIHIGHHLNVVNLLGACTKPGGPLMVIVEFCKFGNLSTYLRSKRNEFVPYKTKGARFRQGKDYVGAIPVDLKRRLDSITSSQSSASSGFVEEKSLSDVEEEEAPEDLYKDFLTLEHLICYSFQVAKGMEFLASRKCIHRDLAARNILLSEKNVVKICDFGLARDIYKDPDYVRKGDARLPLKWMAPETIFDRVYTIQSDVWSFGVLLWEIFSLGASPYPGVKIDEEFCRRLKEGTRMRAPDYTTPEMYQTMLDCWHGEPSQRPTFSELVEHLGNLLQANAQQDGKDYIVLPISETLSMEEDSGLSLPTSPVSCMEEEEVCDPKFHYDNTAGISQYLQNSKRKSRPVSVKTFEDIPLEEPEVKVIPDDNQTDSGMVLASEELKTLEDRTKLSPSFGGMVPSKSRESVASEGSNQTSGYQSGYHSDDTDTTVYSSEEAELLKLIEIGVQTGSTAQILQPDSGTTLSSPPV
- MEASUREMENT NOTES: cell-based or functional assay
Numbers only, in %.

# count of solved cases: 2
{"columns": ["BINDER", "REPORTED"],
 "data": [
  ["31E11 (antibody, V domains shown) VH: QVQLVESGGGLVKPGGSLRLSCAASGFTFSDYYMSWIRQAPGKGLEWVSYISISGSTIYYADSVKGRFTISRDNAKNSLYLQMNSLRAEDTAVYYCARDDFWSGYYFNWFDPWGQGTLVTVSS VL: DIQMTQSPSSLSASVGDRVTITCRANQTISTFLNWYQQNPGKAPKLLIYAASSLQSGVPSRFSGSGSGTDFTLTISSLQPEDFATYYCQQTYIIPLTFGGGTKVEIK", 89],
  ["32G7 (antibody, V domains shown) VH: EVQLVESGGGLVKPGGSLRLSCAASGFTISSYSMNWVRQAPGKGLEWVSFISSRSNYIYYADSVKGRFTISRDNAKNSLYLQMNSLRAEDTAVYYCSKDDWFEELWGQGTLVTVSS VL: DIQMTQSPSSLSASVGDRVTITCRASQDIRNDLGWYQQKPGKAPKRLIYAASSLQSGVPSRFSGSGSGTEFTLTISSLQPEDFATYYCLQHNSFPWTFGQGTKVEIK", 69]
]}

Value lookup for Activity at 133 nM Antibody Concentration (% Survival Inhibition), Average; key = 30F6 (antibody, V domains shown) VH: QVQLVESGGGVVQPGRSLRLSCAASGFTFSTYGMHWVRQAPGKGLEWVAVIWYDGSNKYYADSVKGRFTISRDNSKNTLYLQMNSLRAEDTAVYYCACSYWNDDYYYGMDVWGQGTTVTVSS VL: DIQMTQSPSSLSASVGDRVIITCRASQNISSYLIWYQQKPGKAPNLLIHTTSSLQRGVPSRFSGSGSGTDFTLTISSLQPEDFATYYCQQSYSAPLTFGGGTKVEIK
82
